Target: 2-dehydro-3-deoxyphosphooctonate aldolase (Neisseria meningitidis serogroup B (strain MC58), UniProt Q9JZ55)
Sequence (Q9JZ55 whole entry): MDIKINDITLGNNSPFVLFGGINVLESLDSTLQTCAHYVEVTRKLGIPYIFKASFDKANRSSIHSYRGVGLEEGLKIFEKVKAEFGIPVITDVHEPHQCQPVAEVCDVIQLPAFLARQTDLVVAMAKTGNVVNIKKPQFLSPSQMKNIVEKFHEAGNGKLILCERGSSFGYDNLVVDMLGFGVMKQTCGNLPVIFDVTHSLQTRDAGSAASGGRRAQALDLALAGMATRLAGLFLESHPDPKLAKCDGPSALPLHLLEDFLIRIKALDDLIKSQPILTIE
Assay: Competitive inhibition of Neisseria meningitidis serotype B strain MC58 ATCC BAA355 KDO8P synthase expressed in Escherichia coli BL21 (DE3) cells using PEP as substrate after 10 to 15 mins by Michaelis-Menten equation
reported_property: Ki (µM)

Look over these answered cases.
compound	scale_unit	result_number
C[C@@H](OP(=O)(O)O)C(=O)O	µM	870
O=C(O)CNCP(=O)(O)O [GLYPHOSATE]	µM	260
C[C@H](OP(=O)(O)O)C(=O)O	µM	1200

P = O=C(O)C(CCCCCCOP(=O)(O)O)OP(=O)(O)O (stereo unspecified)
Q = O=C(O)C(CCCCCCO)OP(=O)(O)O (stereo unspecified)
R = O=C(O)C(O)CCCCCCOP(=O)(O)O (stereo unspecified)
// sort entries: Ki, high to low A ranking is expressed here by listing the labels in the requested order.
Q, R, P
